# test.protocol: NCI Yeast Anticancer Drug Screen. Data for the bub3 strain (AID 167)
# condition.details: S. cerevisiae bub3 mutant strain, at 50.0 µM, hits give high values
This is part of a sample that, as a whole, favours compounds with a hit. Of some 79,000 tested, about 15% had one in any assay.

compound	unit.of.measure	growth inhibition
CCOC(=O)/C(C#N)=C/c1cccc(Cl)c1	%	13.4
O=C(O)C1CCCCC1C(=O)Nc1ccc(Cl)c(Cl)c1 (configuration not stated)	%	13.6
COc1ccc(C(=O)NC(=S)Nc2cc(C(F)(F)F)ccc2Cl)cc1	%	-3.8
N#Cc1[nH]nc2nc[nH]c(=O)c12	%	3.9
COC(=O)C1C(=O)C=C(C)C(C(=O)OC)C1c1ccccc1 (configuration not stated)	%	12.5
CCN(CC)CCN=C1Nc2ccccc2N(O)N1	%	12.6
COc1ccc(/C=C2\N=C(c3cc(OC)c(OC)c(OC)c3)OC2=O)cc1Br	%	6.2
O=P(Nc1ccc(Cl)cc1)(c1ccc(Cl)cc1)c1ccc(Cl)cc1	%	-0.15
CCOC(=O)c1[nH]c(C(=O)O)c(C(=O)OCC)c1C	%	-5.3
FC(F)(c1nn[nH]n1)C(F)(F)C(F)(F)c1nn[nH]n1	%	-1.05
O=C(Nc1cccc(O)c1)c1ccccc1Cl	%	-11.9
COC(=O)C(C)CN1CCCCC1 (configuration not stated)	%	31.9

---

# test.protocol: NCI Yeast Anticancer Drug Screen. Data for the mlh1 rad18 strain (AID 175)
# condition.details: S. cerevisiae mlh1 rad18 strain growth inhibition; at 50.0 µM; hits give high values
# Procedure: Growth inhibition of yeast strains with defined genetic alterations is measured as a screen for potential anti-cancer activity. Selected strains with alterations in DNA damage repair or cell cycle control were exposed to compounds and growth inhibition was measured relative to vehicle treated controls. The strain used in this assay is mlh1 rad18
The panel holds about 79,000 compounds, 15% with a hit somewhere; the sample as a whole holds those more often.
Classify by measured growth inhibition: TRUE if it is equal to or exceeds 10%, FALSE if it is smaller.

compound	category.label
CC(Cc1ccccc1)Nc1ccccc1 (stereo not drawn)	TRUE
CSc1cc2c(cc1NC(C)=O)Cc1ccccc1-2	FALSE
Cc1cc2c(cc1C)NC1=C(N2)OC(c2ccc(Cl)cc2)C1=O (stereo not drawn)	TRUE
COC(=O)C1C2C=CC(C2)C1C(=O)OC (stereo not drawn)	FALSE
CCOCCC(=N)OCC	TRUE
CCC(C)(C)c1ccc(O)c(CNCCO)c1	FALSE
CN(C)c1nc(N(C)C)n2c(-c3ccccc3[N+](=O)[O-])nnc2n1	TRUE
C#CC(C)(O)CC(C)C (stereo not drawn)	FALSE
CC[O-].CC[O-].O=C([CH-]C(=O)c1ccccc1)CCCCCCCCC(=O)[CH-]C(=O)c1ccccc1.[Ti+4]	FALSE
COc1cc(Br)c(CC2c3cc(OC)c(OC)cc3CCN2C)cc1OC (stereo not drawn)	FALSE
N#CCN1CCOCCOCCN(CC#N)CCOCCOCC1	TRUE
O=C1CCC(=O)N1Cc1ccccc1N=[N+]([O-])c1ccccc1CN1C(=O)CCC1=O	FALSE
OCCSCCCCCSCCO	FALSE

---

# test.protocol: NCI Yeast Anticancer Drug Screen. Data for the mec2-1 strain (AID 157)
# condition.details: S. cerevisiae mec2-1 strain, at 50.0 µM, hits give high values
The panel holds about 79,000 compounds, 15% with a hit somewhere; the sample as a whole holds those more often.
Classify by measured growth inhibition: Satisfied if it is equal to or exceeds -10%, Not satisfied if it is smaller.

compound	category.label
COC(=O)/C=C(/C(=O)OC)C1(C)c2cc(C(=O)OC)c(C(=O)OC)c(N)c2C(=N)N1c1ccccc1 (stereo not given)	Satisfied
CC(=O)N[C@@H]1CCC[C@H](NC(C)=O)C1	Not satisfied
CC(C)Cc1cccc(C(C)C)c1NC(=O)CCC(=O)N/N=C1\C(=N/NC(=O)CCC(=O)Nc2c(C(C)C)cccc2C(C)C)C(c2ccc3c(c2)OCO3)Oc2ccccc21 (stereo not given)	Not satisfied
COc1ccc(Cc2c3cc(OC)c(OC)cc3cc[n+]2C)cc1	Not satisfied
O=C(Nc1ccc([N+](=O)[O-])cc1)Nc1nccnn1	Not satisfied

---

# test.protocol: NCI Yeast Anticancer Drug Screen. Data for the cln2 rad14 strain (AID 165);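 also: 0% = growth equal to vehicle treated cultures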
# condition.details: S. cerevisiae cln2 rad14 strain, at 50.0 µM, hits give high values
This is part of a sample that, as a whole, favours compounds with a hit. Of some 79,000 tested, about 15% had one in any assay.
Entries annotated with measured growth inhibition

molecule	growth inhibition [%]
Cc1cc2ccccc2c[n+]1C1CCc2ccccc2C1=O (configuration not stated)	24
O=C(CCCCCCCCC(=O)NC1CCCCC1)NC1CCCCC1	-20.8
CC1(C)[C@@H]2C[C@H]1C(Cc1cccc(C[C@H]3c4cc(-c5ccccn5)ncc4[C@H]4C[C@@H]3C4(C)C)c1)c1cc(-c3ccccn3)ncc12 (some centres not stated)	-7.7
CC1(C)CC(=O)C(C)(CCc2ccccc2)C(=O)C1	-44.6
O=C1c2ccccc2C(=C(c2ccccc2)c2ccccc2)c2ccccc21	10.6
CN(C)CCCNc1ccc2nnn3c4ccc([N+](=O)[O-])cc4c(=O)c1c23	55.1
COc1ccc2c(O)c(Oc3ccc(Cl)cc3)c(=O)oc2c1	2.6
CCOc1ccc(C2Oc3c(cccc3OC)C=C2[N+](=O)[O-])cc1OCC (configuration not stated)	11.4
COC(=O)C(/C(=N/NC(=O)c1ccncc1)C(=O)Nc1ccccc1OC)c1nc2ccc(Cl)cc2[nH]c1=O (configuration not stated)	-38
COc1cc2c(NCCCCCCO[N+](=O)[O-])ncnc2c(OC)c1OC	43.8
CCOC(=O)c1cnc2c(ccc3ncccc32)c1OCC	17.2
Cc1ccc2cc(N)ccc2c1	-9.85
CCCC1(C)COC(C)(CCC)OC1 (configuration not stated)	-34.4
Cn1c2c(c(=O)c3c4[nH]c5c(c(=O)c4ccc31)CCCC5)CCCC2	-5.65
[N-]=[N+]=NC1CCOC(n2cnc3c(N)ncnc32)C1O (configuration not stated)	-33.5
BrC1C2=C(c3ccccc31)C(Br)c1ccccc12 (configuration not stated)	28.8
Cc1cc(N(CCC#N)CCC#N)ccc1/C=C1\N=C(c2cc([N+](=O)[O-])ccc2Cl)N(c2cccc(Cl)c2)C1=O	-7.6
Cc1ccc(NS(=O)(=O)c2ccc(F)cc2)c(C)c1	-14.2
OCC(O)C(O)C(O)C(O)C(O)C(O)CO (configuration not stated)	5.75
Cc1ccc(S(=O)(=O)Nn2c(O)c(C#N)c(-c3ccc(Cl)cc3)c(C#N)c2=O)cc1	11.5
O=C(O)c1ccc2c(c1)S(=O)(=O)NC2=O	-26.1
O=c1[nH]c2cc(Br)c(Br)cc2c2ccc(Br)cc12	1.3

---

# test.protocol: NCI Yeast Anticancer Drug Screen. Data for the sgs1 mgt1 strain (AID 161);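 also: 0% = growth of cultures given vehicle only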
# condition.details: S. cerevisiae sgs1 mgt1 strain, at 50.0 µM, hits give high values
This is part of a sample that, as a whole, favours compounds with a hit. Of some 79,000 tested, about 15% had one in any assay.
Entries annotated with measured growth inhibition

compound	unit.of.measure	growth inhibition
CCCC(C)(CCC)OC(=O)Nc1cccc2ccccc12	%	-4.4
COc1ccc2c(c1)OCCN(C)OC2c1ccccc1 (centres undefined)	%	-10.2
O=C(O)c1csc(C(=O)O)c1	%	9.05
CC(=O)NC(C)c1ccc2ccccc2c1 (centres undefined)	%	1.8
O=C(O)c1ccccc1CC(Cc1ccc2c(c1)CCC2)C(=O)O (centres undefined)	%	-37
C/C(=N\n1cc(-c2ccccc2)nc1N)c1ccccc1	%	6
CSCCCCCSC	%	-25.3
CCOC(=O)c1cnc(NCCCCCCNc2ncc(C(=O)OCC)c(=O)[nH]2)[nH]c1=O	%	-3.65
OCCN(CCO)c1ccc2c(C(F)(F)F)cc(C(F)(F)F)nc2n1	%	15.8
O=S1(=O)CS(=O)(=O)OCCO1	%	14.7
Cc1cc(C)cc(NC(=O)CCC(=O)C2CCC/C2=N\NC(=O)C(=O)NN)c1 (centres undefined)	%	-20.6
NC(=S)CNC(=O)c1ccccc1	%	-29.3
Cc1cc[c]([Sb]2([c]3ccc(C)cc3)([c]3ccc(C)cc3)[NH]c3cc(C(c4ccccc4)(c4ccccc4)c4ccccc4)cc(C(C)(C)C)c3[O]2)cc1	%	5.15
O=C(OCC1OC(OCc2ccccc2)C(OC(=O)c2ccccc2)C1OC(=O)c1ccccc1)c1ccccc1 (centres undefined)	%	-2.4
Cc1cccc2c(N)c3cccc(C(=O)NCC[N+](C)(C)[O-])c3nc12	%	11.1
Cc1cc(C(F)(F)F)nc2nc3ccccc3n12	%	-0.15
COC(=O)C(Cc1ccccc1)NC(=O)Cn1ccnc1[N+](=O)[O-] (centres undefined)	%	15.2
CCCc1ccc(N=Nc2ccc(C(=O)O)cc2)cc1	%	-2.9
ClCCCCCCCCCCl	%	-12.7
C=CCSc1nc2ccc(N3C(=O)C4C5C=CC(C5)C4C3=O)cc2s1 (centres undefined)	%	-6.35
CN(C)C(=O)NCc1cccnc1	%	0.35
NC(CSSCC(N)=NCC12CC3CC(CC(C3)C1)C2)=NCC12CC3CC(CC(C3)C1)C2	%	99.5
C1CCC(NCCNC2CCCCC2)CC1	%	5.5
C[C@]1(CO)[C@H]2CC[C@@]34C=C[C@@](CO)(CC[C@H]3[C@]2(C)CC[C@H]1O)C4	%	39.6
